# METHOD_NOTES: Oral bioavailability in Wistar rat at 10 mg/kg administration
# Type: ADME, organism-based
# TEST_PARAMETERS: in vivo
READOUT_LABEL: bioavailability (%)
Dear colleague, please return just the value in %, with no unit written.

In: Find the recorded bioavailability belonging to "Cc1ccc(Cl)c(C(=O)N[C@@H](CNC(=O)Cn2c(=O)[nH]c3nc(C)c(F)cc32)C(=O)O)c1F" and report it.
Out: 1.3

###

# METHOD_NOTES: Apparent permeability across apical to basolateral side in dog MDCK-MDR1 cells incubated for 60 mins by HPLC analysis
# Type: ADME, cell-based, Canis lupus familiaris
READOUT_LABEL: Papp A→B at 1 h (×10⁻⁶ cm/s)

Take a look at these entries with their results.
Cc1ccc(Cl)c(C(=O)N[C@@H](CNC(=O)Cn2c(=O)[nH]c3ncncc32)C(=O)O)c1F = 0.9
Cc1ccc(Cl)c(C(=O)N[C@@H](CNC(=O)Cn2c(=O)[nH]c3cc(F)c(F)cc32)C(=O)O)c1F = 1.2

1: Cc1cc2[nH]c(=O)n(CC(=O)NC[C@H](NC(=O)c3c(Cl)ccc(C)c3F)C(=O)O)c2cc1C
2: COc1ccc(Cl)c(C(=O)N[C@@H](CNC(=O)Cn2c(=O)[nH]c3ccncc32)C(=O)O)c1F
3: Cc1ccc(Cl)c(C(=O)N[C@@H](CNC(=O)Cn2c(=O)[nH]c3nc(C)c(F)cc32)C(=O)O)c1F
4: Cc1cnc2[nH]c(=O)n(CC(=O)NC[C@H](NC(=O)c3c(Cl)ccc(C)c3F)C(=O)O)c2c1
In: Order by Papp A→B at 1 h, ascending. Put the labels in the requested order and list them out.
Out: 4, 1, 2, 3

###

# METHOD_NOTES: Half life in Sprague-Dawley rat at 30 mg/kg,sc administration
# Format: ADME, organism-based
# TEST_PARAMETERS: in vivo
READOUT_LABEL: half-life (h)
Your answer should be a plain number; it is taken to be in h.

In: Data request, read-out half-life, for "Cc1ccc(Cl)c(C(=O)N[C@@H](CNC(=O)Cn2c(=O)[nH]c3nc(C)c(F)cc32)C(=O)O)c1F"
Out: 3.3

###

# MEASURED_TARGET: Integrin alpha-V/beta-6 (Homo sapiens, UniProt P06756+P18564)
# Sequence (P06756 31-889 limits assumed): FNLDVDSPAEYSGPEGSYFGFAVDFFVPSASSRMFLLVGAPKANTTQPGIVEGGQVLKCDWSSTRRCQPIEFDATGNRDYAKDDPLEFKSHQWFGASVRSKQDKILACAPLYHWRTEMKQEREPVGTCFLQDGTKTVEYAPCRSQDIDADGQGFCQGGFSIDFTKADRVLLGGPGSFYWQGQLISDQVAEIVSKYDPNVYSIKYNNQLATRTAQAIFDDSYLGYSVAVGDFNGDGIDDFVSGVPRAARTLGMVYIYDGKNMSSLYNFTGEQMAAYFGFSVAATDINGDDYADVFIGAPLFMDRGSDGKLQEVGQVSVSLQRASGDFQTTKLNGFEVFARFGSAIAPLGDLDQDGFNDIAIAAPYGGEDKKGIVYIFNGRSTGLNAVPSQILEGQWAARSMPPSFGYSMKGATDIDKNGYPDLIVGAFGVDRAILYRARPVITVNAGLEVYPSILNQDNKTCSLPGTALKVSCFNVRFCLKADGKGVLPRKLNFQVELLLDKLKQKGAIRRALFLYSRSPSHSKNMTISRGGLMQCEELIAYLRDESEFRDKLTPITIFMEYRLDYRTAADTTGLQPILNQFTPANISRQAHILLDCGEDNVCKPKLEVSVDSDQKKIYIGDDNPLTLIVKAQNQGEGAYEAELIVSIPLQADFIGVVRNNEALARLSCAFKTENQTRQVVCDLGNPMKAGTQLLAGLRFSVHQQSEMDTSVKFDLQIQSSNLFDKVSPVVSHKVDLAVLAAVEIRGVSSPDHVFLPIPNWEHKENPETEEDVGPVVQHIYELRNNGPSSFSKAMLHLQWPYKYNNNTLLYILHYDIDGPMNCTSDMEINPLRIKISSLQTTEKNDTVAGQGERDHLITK
# Sequence (P06756 891-1048 limits assumed): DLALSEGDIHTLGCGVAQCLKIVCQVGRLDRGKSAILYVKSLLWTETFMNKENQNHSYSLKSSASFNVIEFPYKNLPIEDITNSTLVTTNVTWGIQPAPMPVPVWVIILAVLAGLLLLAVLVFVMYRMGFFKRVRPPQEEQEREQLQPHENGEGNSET
# Sequence (P18564 22-788 limits assumed): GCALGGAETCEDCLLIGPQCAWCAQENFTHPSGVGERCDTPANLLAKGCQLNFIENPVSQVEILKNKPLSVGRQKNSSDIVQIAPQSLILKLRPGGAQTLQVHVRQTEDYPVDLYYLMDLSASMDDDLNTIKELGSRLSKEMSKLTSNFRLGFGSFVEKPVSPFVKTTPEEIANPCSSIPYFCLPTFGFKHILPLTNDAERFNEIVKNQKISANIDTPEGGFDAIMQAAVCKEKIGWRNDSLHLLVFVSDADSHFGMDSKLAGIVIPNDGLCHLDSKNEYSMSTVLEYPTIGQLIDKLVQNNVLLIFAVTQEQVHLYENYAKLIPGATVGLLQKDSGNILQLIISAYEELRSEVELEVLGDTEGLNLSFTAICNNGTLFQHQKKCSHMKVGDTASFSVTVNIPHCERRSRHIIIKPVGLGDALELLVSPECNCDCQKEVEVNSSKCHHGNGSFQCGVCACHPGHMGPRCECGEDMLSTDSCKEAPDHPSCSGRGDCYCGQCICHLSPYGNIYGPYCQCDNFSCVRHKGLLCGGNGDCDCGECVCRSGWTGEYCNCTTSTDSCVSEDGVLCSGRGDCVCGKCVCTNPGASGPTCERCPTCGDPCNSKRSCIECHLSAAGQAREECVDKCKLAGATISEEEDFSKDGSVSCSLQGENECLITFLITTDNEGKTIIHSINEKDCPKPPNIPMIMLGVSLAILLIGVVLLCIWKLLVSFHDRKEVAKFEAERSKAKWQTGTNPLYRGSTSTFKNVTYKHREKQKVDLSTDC
# METHOD_NOTES: Inhibition of recombinant human Integrin alphaVbeta6 using TMB as substrate incubated for 2 hrs in presence of LAP by ELISA
# Assay type: protein-complex assay
READOUT_LABEL: IC50 (µM)

O=C(Cn1c(=O)[nH]c2ncccc21)NC[C@H](NC(=O)c1ccccc1Cl)C(=O)O = 0.501
COc1ccc(Cl)c(C(=O)N[C@@H](CNC(=O)Cn2c(=O)[nH]c3ncccc32)C(=O)O)c1F = 3.16

a: Cc1ccc(Cl)c(C(=O)N[C@@H](CNC(=O)Cn2c(=O)[nH]c3ncccc32)C(=O)O)c1F
b: COc1cc(F)c(C(=O)N[C@@H](CNC(=O)Cn2c(=O)[nH]c3ncccc32)C(=O)O)c(Cl)c1
In: Field: lower IC50 | Options: a / b In your reply, give the label of the chosen option.
Out: a

###

# MEASURED_TARGET: Integrin alpha-V/beta-1 (Homo sapiens, UniProt P05556+P06756)
# Sequence (P05556 21-798 limits assumed): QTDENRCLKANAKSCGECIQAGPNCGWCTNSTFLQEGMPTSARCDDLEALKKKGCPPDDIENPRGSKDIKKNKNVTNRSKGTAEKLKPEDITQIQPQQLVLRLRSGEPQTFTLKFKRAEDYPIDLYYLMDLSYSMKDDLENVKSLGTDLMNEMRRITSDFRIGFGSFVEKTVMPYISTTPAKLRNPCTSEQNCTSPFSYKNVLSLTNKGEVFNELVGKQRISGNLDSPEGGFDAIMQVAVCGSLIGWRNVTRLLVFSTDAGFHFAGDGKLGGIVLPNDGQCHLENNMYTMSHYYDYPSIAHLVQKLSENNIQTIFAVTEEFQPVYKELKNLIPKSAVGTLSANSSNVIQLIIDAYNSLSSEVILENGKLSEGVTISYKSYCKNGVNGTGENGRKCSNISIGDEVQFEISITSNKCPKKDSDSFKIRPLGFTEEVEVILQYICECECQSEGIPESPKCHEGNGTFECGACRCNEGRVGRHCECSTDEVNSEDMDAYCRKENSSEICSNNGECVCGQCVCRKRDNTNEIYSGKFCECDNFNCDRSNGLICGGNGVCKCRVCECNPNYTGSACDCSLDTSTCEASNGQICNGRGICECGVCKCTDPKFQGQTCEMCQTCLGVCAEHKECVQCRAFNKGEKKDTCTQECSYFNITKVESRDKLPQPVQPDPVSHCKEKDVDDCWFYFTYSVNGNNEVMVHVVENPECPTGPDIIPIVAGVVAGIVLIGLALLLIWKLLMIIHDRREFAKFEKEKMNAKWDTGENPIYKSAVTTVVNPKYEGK
# Sequence (P06756 31-889 limits assumed): as the sequence (P06756 31-889 limits assumed) above
# Sequence (P06756 891-1048 limits assumed): as the sequence (P06756 891-1048 limits assumed) above
# METHOD_NOTES: Inhibition of recombinant human Integrin alphaVbeta1 using TMB as substrate incubated for 2 hrs in presence of fibronectin by ELISA
# Type: protein-complex assay
READOUT_LABEL: IC50 (nM)

O=C(NC(CNc1ccc(N2CCNC2=O)cc1)C(=O)O)c1c(Cl)cccc1Cl (racemic) = 200
O=C(CCCCc1ccc2c(n1)NCCC2)NCC(NC(=O)c1c(Cl)cccc1Cl)C(=O)O (racemic) = 0.2
Cc1cc(C#N)cc(C)c1C(=O)N[C@@H](CNC(=O)Cn1c(=O)[nH]c2ncccc21)C(=O)O = 10
COc1cc(F)c(C(=O)N[C@@H](CNC(=O)Cn2c(=O)[nH]c3ncccc32)C(=O)O)c(Cl)c1 = 1.26
O=C(Cn1c(=O)[nH]c2ncccc21)NC[C@H](NC(=O)c1c(Cl)cccc1Cl)C(=O)O = 3.98

P: O=C(CN1C(=O)NCc2ccccc21)NC[C@H](NC(=O)c1ccccc1Cl)C(=O)O
Q: COc1ccc(Cl)c(C(=O)N[C@@H](CNC(=O)Cn2c(=O)[nH]c3ccncc32)C(=O)O)c1F
In: Response body: label of entry with the larger IC50; valid values P , Q . Output the label that corresponds to your choice.
Out: P
(P: 316 nM, Q: 0.631 nM)

A: O=C(Cn1c(=O)[nH]c2ncccc21)NC[C@H](NC(=O)c1c(F)cc(-c2ccccc2)cc1Cl)C(=O)O
B: O=C(Cn1c(=O)[nH]c2ncccc21)NC[C@H](NC(=O)c1ccccc1Cl)C(=O)O
C: O=C(Cn1c(=O)[nH]c2ncccc21)NC[C@H](NC(=O)c1c(F)cccc1Cl)C(=O)O
D: Cc1ccc(Cl)c(C(=O)N[C@@H](CNC(=O)Cn2c(=O)[nH]c3cc(F)c(F)cc32)C(=O)O)c1F
E: Cc1cc2[nH]c(=O)n(CC(=O)NC[C@H](NC(=O)c3c(Cl)ccc(C)c3F)C(=O)O)c2cc1C
In: Rank descending by IC50. Arrange the labels as the request states and list them.
Out: A, B, C, E, D

1: O=C(Cn1c(=O)[nH]c2ccccc21)NC[C@H](NC(=O)c1c(Cl)cccc1Cl)C(=O)O
2: Cc1ccc(Cl)c(C(=O)N[C@@H](CNC(=O)Cn2c(=O)[nH]c3nc(C)c(F)cc32)C(=O)O)c1F
In: Look at 1 and 2 . Which one has the lower recorded IC50 number? Field: selected label. Fill in the label of the entry you choose.
Out: 2
(2: 0.316 nM, 1: 20 nM)
